Exercise: state measured pIC50 for each of the compounds provided.
- Assay system: NAD-dependent protein deacylase sirtuin-6 (Homo sapiens, UniProt Q8N6T7)
- Sequence (Q8N6T7 whole entry): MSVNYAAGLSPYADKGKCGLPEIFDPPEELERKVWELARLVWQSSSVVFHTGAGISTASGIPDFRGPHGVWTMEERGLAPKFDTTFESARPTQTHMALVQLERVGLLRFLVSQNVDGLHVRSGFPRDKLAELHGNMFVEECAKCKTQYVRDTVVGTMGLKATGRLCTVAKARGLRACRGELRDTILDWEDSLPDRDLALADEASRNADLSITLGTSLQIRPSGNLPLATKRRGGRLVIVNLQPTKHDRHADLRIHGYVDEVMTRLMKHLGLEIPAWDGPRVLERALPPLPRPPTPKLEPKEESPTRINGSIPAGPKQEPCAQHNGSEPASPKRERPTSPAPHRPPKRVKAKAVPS
- Run description: Inhibition of human recombinant SIRT6 assessed as 7-amino-4-methylcoumarin labelled Arg-His-Lys-Lys(epsilon-acetyl) substrate deacetylation after 90 mins by Fluor-de-Lys assay
Square brackets hold non-standard residues; d marks the D form. Peptide text beside a SMILES is read from it. Lys(Thioacetyl) = CC(=S)NCCCC[C@H](N)C(=O)O
Interpret pIC50 as the negative base-10 log of the concentration measured in mol/L.

-- ask Dear colleague, I am looking for the recorded pIC50 of the following compound: CSCC[C@H](NC(=O)[C@H](CC(C)C)NC(=O)[C@H](CCCCNC(C)=S)NC(=O)[C@H](CCCCN)NC(=O)[C@H](C)N)C(=O)O (H-AK[Lys(Thioacetyl)]LM-OH)
-- reply 4.33

-- ask Dear colleague, I am looking for the recorded pIC50 of the following compound: CSCC[C@H](NC(=O)[C@H](CC(C)C)NC(=O)[C@H](CCCCNC(C)=S)NC(=O)[C@H](CCCCN)NC(=O)[C@@H](N)Cc1cnc[nH]1)C(=O)O (H-HK[Lys(Thioacetyl)]LM-OH)
-- reply 4.11

-- ask Dear colleague, I am looking for the recorded pIC50 of the following compound: CC(=[Se])NCCCC[C@H](NC(=O)OCc1ccccc1)C(=O)Nc1ccccc1
-- reply 3.55
